Values were extracted from patent US20130251703A1.

system.name: human HER3 endogenously expressed on human cancer cells (SK-Br-3, BT-474, MCF7) (human, UniProt P21860 20-1342)
measurement.description: cell-based or functional assay

{"binder": "MOR14534 (antibody, human IgG1, kappa, V domains shown, Tested as IgG) VH: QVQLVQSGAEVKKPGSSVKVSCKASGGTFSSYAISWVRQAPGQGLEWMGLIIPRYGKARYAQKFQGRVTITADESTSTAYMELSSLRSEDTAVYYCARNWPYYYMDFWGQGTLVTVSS VL: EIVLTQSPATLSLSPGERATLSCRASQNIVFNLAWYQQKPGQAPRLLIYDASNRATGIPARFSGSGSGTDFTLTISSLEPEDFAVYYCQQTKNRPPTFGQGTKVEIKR", "SK-Br-3 proliferation % inhibition, %": 40}
{"binder": "MOR13657 (antibody, human IgG1, lambda, V domains shown, Tested as IgG) VH: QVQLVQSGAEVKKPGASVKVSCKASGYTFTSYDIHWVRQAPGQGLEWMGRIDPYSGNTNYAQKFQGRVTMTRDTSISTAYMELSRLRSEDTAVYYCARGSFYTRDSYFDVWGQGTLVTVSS VL: DIALTQPASVSGSPGQSITISCTGTSSDVGTYNQVSWYQQHPGKAPKLMIYGVSKRPSGVSNRFSGSKSGNTASLTISGLQAEDEADYYCSARDGWSEYVFGGGTKLTVLG", "SK-Br-3 proliferation % inhibition, %": 39}
{"binder": "MOR12615 (antibody, human IgG1, lambda, V domains shown, Tested as IgG) VH: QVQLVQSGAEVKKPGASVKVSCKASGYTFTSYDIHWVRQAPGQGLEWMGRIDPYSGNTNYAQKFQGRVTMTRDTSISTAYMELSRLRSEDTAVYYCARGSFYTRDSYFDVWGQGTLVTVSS VL: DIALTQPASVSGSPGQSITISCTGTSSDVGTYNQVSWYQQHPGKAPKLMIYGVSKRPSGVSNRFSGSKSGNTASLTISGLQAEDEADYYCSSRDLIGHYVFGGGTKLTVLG", "SK-Br-3 proliferation % inhibition, %": 40}
{"binder": "MOR13654 (antibody, human IgG1, lambda, V domains shown, Tested as IgG) VH: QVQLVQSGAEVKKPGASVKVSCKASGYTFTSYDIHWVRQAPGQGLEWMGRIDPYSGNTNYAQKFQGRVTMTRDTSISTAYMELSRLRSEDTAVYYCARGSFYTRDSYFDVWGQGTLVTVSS VL: DIALTQPASVSGSPGQSITISCTGTSSDVGTYNQVSWYQQHPGKAPKLMIYGVSKRPSGVSNRFSGSKSGNTASLTISGLQAEDEADYYCQSRGEYRPGWVFGGGTKLTVLG", "SK-Br-3 proliferation % inhibition, %": 34}
{"binder": "MOR13666 (antibody, human IgG1, lambda, V domains shown, Tested as IgG) VH: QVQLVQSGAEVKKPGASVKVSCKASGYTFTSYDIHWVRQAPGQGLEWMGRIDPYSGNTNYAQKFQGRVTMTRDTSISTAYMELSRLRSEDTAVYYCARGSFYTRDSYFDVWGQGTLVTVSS VL: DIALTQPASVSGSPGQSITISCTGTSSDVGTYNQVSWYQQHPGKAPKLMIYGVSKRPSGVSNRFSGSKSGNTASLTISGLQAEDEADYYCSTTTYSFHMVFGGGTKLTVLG", "SK-Br-3 proliferation % inhibition, %": 39}
